Would you mind telling me the reported koff of each entry?
Target: T1, canine FcRn with a poly-His tag / canine B2M heterodimer complex (canine, biotinylated where immobilised on the Biacore chip)
T1 construct: Made in HEK cells, Ni-NTA purified; also called canine FcRn/B2M complex; soluble canine FcRn/B2M complex
T1 chain: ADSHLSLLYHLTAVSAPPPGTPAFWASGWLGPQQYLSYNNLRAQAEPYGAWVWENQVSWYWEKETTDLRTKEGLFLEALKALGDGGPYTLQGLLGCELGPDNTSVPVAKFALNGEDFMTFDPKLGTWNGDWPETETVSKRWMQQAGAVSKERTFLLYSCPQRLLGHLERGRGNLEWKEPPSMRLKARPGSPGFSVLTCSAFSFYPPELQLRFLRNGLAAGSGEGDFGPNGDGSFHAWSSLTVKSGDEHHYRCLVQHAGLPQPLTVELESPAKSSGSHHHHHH
T1 b2m: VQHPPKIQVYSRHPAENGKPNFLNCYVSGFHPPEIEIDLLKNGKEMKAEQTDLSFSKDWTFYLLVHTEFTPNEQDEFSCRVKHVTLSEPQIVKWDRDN
Assay: SPR (Biacore T200), pH 6.0; biotinylated canine FcRn/B2M complex immobilised, Fc polypeptide as analyte
The response must be a number in s⁻¹ with no trailing unit.

Q: Would you mind telling me what koff value was observed for variant canine IgG-B Fc polypeptide L(23)Y (other, E. coli expressed, with SASA tag; also called Y00; not shown: SASA tag) PAPEMLGGPSVFIFPPKPKDTLYIARTPEVTCVVVDLDPEDPEVQISWFVDGKQMQTAKTQPREEQFNGTYRVVSVLPIGHQDWLKGKQFTCKVNNKALPSPIERTISKARGQAHQPSVYVLPPSREELSKNTVSLTCLIKDFFPPDIDVEWQSNGQQEPESKYRTTPPQLDEDGSYFLYSKLSVDKSRWQRGDTFICAVMHEALHNHYTQESLSHSPGK ?
Result: 0.0138

Q: What does the data say about its koff? Entry: variant canine IgG-B Fc polypeptide L(23)M (other, not shown: SASA tag) PAPEMLGGPSVFIFPPKPKDTLMIARTPEVTCVVVDLDPEDPEVQISWFVDGKQMQTAKTQPREEQFNGTYRVVSVLPIGHQDWLKGKQFTCKVNNKALPSPIERTISKARGQAHQPSVYVLPPSREELSKNTVSLTCLIKDFFPPDIDVEWQSNGQQEPESKYRTTPPQLDEDGSYFLYSKLSVDKSRWQRGDTFICAVMHEALHNHYTQESLSHSPGK
Result: 0.126

Q: Which koff is listed for wild-type canine IgG-B Fc polypeptide (other, Expressed from plasmid pFASEBA in E. coli with an SASA tag; also called wildtype IgG-B Fc polypeptide; not shown: SASA tag) PAPEMLGGPSVFIFPPKPKDTLLIARTPEVTCVVVDLDPEDPEVQISWFVDGKQMQTAKTQPREEQFNGTYRVVSVLPIGHQDWLKGKQFTCKVNNKALPSPIERTISKARGQAHQPSVYVLPPSREELSKNTVSLTCLIKDFFPPDIDVEWQSNGQQEPESKYRTTPPQLDEDGSYFLYSKLSVDKSRWQRGDTFICAVMHEALHNHYTQESLSHSPGK ?
Result: 0.122

Q: May I ask what koff has been recorded for variant canine IgG-B polypeptide L(23)S (other, not shown: SASA tag) PAPEMLGGPSVFIFPPKPKDTLSIARTPEVTCVVVDLDPEDPEVQISWFVDGKQMQTAKTQPREEQFNGTYRVVSVLPIGHQDWLKGKQFTCKVNNKALPSPIERTISKARGQAHQPSVYVLPPSREELSKNTVSLTCLIKDFFPPDIDVEWQSNGQQEPESKYRTTPPQLDEDGSYFLYSKLSVDKSRWQRGDTFICAVMHEALHNHYTQESLSHSPGK ?
Result: 0.241
